B1: ZNF263 (parent)
chain: VPGTQVGQGGKLWDPSVQSCKEGL

# Variants of: B1
# test_details: protein stability index of a GFP-peptide fusion (GPS, HEK-293T) (PSI 1-6); higher = more stable;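 also: lentivirally expressed fusions sorted by FACS into six bins by GFP to DsRed ratio, PSI derived from sequencing read proportions per bin multiplied by bin number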
# condition: c terminus: a fixed tail appended
reported_endpoint: protein stability index
Give the value as a plain number.

Lab book: protein stability index of V6K noted as 4.69

Lab book: protein stability index of L12A noted as 3.4

Lab book: protein stability index of S16W noted as 3.17

***
Lab book: protein stability index of K21M noted as 3.92

Lab book: protein stability index of Q8V noted as 4.04

Lab book: protein stability index of S16E noted as 4.73

meta.source: the supplement of paper PMC10567573
